molecular target: human ENT1 (Homo sapiens); construct: JAR cells expressing ENT1 were purchased from ATCC; host or cells: JAR cells; assay: ENT1 binding assay (competition with Sahenta-DY647 on JAR cells); details: competition with SAHENTA-DY647 binding; IC50 categorized; read-out: Binding Assay IC50
Sequence (Q99808 whole entry): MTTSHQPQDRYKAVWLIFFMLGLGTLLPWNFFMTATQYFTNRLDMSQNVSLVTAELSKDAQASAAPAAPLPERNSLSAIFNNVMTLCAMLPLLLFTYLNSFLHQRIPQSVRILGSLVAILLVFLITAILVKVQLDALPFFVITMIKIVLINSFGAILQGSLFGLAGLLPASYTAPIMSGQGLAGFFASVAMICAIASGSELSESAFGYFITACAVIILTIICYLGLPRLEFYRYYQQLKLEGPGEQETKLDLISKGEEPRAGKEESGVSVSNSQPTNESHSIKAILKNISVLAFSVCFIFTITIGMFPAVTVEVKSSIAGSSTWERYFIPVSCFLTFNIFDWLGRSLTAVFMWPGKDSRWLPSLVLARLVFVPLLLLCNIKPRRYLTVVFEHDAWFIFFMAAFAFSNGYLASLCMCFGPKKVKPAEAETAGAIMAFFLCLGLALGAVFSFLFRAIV
readout: IC50

// known answers, use as guide
Req: IC50 for `C[C@H]1O[C@@H](n2c(N[C@@H]3CCOC3)nc3c(OCc4ccc(C#N)cc4)ncnc32)[C@H](O)[C@@H]1O` ?
Resp: 1 to 20 nM

Req: IC50 for `C[C@H]1O[C@@H](n2cnc3c(SCc4cccc(S(N)(=O)=O)c4)ncnc32)[C@H](O)[C@@H]1O` ?
Resp: > 500 nM

Further cases:
Req: IC50 for `C[C@H]1O[C@@H](n2cnc3c(OCCc4ccc(OC(F)F)cc4)ncnc32)[C@H](O)[C@@H]1O` ?
Resp: > 500 nM

Req: IC50 for `Cc1nn(C)c(C)c1CNc1nc2c(OCc3ccc([N+](=O)[O-])cc3)ncnc2n1[C@H]1O[C@H](C)[C@@H](O)[C@H]1O` ?
Resp: < 1 nM

Req: IC50 for `C[C@H]1O[C@H](n2c(NCc3ccccc3)nc3c(OCc4ccc(OC(F)F)cc4)ncnc32)[C@H](O)[C@@H]1O` ?
Resp: 1 to 20 nM
